biological target: UniProt Q8NB16; test: MLKL degradation assay in HepG2 cell line (western blot); type: cell-based; design: endogenous in cells; host or cells: HepG2 or HaCaT; conditions: compound 1 μM; cell line not given
valueKind: Degradation assay (Degradation %) 1 μM
Number only, in %; omit the unit.

Worked set:
# compound, experimentalTarget, unitsOfMeasure, reportedValue
rows = [
    ("Nc1ncc(-c2cnn(C3CCN(CC4CCN(CC5CCN(C(=O)c6ccc7c(c6)CN(C6CCC(=O)NC6=O)C7=O)CC5)CC4)CC3)c2)nc1C(=O)O[C@@H](C(=O)Nc1ccc(F)cc1)c1ccccc1 (some centres unmarked)", "UniProt Q8NB16", "%", 88.92),
    ("Nc1ncc(-c2cnn(C3CCN(CCC4CCN(C(=O)C5CCN(c6cccc7nnn(C8CCC(=O)NC8=O)c(=O)c67)CC5)CC4)CC3)c2)nc1C(=O)OC(C(=O)Nc1ccc(F)cc1)c1ccccc1 (centres unmarked)", "UniProt Q8NB16", "%", 66.33),
    ("Nc1ncc(-c2cnn(C3CCN(CCC4CCN(C5=CC(=O)N(C6CCC(=O)NC6=O)C5=O)CC4)CC3)c2)nc1C(=O)O[C@@H](C(=O)Nc1ccc(F)cc1)c1ccccc1 (some centres unmarked)", "UniProt Q8NB16", "%", 84.27),
    ("Nc1ncc(-c2cnn(C3CCN(CCC4CCN(C(=O)C5CCN(c6cccc7c6C(=O)N(C6CCC(=O)NC6=O)C7=O)CC5)CC4)CC3)c2)nc1C(=O)O[C@@H](C(=O)Nc1ccc(F)cc1)c1ccccc1 (some centres unmarked)", "UniProt Q8NB16", "%", 62.01),
]

Turning to the following compound.
Query COc1ccc(C(=O)N2CCC(CCN3CCC(CN4CCC(n5cc(-c6cnc(N)c(C(=O)O[C@@H](C(=O)Nc7ccc(F)cc7)c7ccccc7)n6)cn5)CC4)CC3)CC2)cc1N1CCC(=O)NC1=O yields Degradation assay (Degradation %) 1 μM of 93.47

----------
target: MLKL (Homo sapiens, UniProt Q8NB16); experiment: MLKL degradation assay in HepG2 cell line (western blot); type: cell-based; design: endogenous in cells; host or cells: HepG2 or HaCaT; settings: compound 10 μM; cell line not given
Sequence (Q8NB16 whole entry): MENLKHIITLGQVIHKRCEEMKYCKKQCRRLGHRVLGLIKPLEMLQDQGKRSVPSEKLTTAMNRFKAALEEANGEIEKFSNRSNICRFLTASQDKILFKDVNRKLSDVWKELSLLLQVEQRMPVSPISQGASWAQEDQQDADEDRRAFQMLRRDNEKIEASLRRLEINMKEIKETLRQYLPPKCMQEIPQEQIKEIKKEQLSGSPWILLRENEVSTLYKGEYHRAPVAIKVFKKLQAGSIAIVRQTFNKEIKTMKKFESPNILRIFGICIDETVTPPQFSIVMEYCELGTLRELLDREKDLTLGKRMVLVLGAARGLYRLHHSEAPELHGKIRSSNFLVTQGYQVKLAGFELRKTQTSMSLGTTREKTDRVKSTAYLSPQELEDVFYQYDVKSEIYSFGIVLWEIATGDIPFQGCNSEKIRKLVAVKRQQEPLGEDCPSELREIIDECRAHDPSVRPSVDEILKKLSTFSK
Listed here: items and their measured Degradation assay (Degradation %) 10 μM.
# value in %; strip the unit string

# molecule, Degradation assay (Degradation %) 10 μM
rows = [
    ("Nc1ncc(-c2cnn(C3CCN(C(=O)CC4CCN(C(=O)CNc5ccc6c(c5)C(=O)N(C5CCC(=O)NC5=O)C6=O)CC4)CC3)c2)nc1C(=O)O[C@@H](C(=O)Nc1ccc(F)cc1)c1ccccc1 (stereo partly drawn)", 73.33),
    ("Nc1ncc(-c2cnn(C3CCN(C(=O)COC4CCN(C(=O)CNc5ccc6c(c5)C(=O)N(C5CCC(=O)NC5=O)C6=O)CC4)CC3)c2)nc1C(=O)O[C@@H](C(=O)Nc1ccc(F)cc1)c1ccccc1 (stereo partly drawn)", 88.49),
]

Kindly review the next molecule as well.
So for Nc1ncc(-c2cnn(C3CCN(CCC4CCN(C(=O)C5CN(c6ccc7nnn(C8CCC(=O)NC8=O)c(=O)c7c6)C5)CC4)CC3)c2)nc1C(=O)O[C@@H](C(=O)Nc1ccc(F)cc1)c1ccccc1 (stereo partly drawn) , the logged Degradation assay (Degradation %) 10 μM turned out to be 71.32
